All values here come from paper PMC5325082.

Biological target: chicken α9W55Tα10 receptor (Gallus gallus, UniProt Q9I8C7+Q9PTS8, W84T)
Test: ACh-evoked currents, two-electrode voltage clamp in Xenopus laevis oocytes
reported-property: EC50 (µM)
Quick reminder: number only, in µM, skip the unit.

Memo: `CC(=O)OCC[N+](C)(C)C` , reported EC50: 357
